ASSAY REMARKS: Phase 1 pharmacokinetics (liquid chromatography/tandem mass spectrometry)
Format: in vivo, human
RUN CONDITIONS: human, in vivo, oral, 400 mg, phase 1, Day 1, 400 mg; read-out: AUC0-24h, Mean
Protocol: In phase 1, full PK sampling was performed on days 1 and 15 of cycle 1 and day 1 of cycle 2. Trough PK samples were drawn prior to dosing on days 8 and 22 of cycle 1 and at 24, 48, and 72 h after dosing on day 25 of cycle 1. A sample was collected before dosing on day 1 of cycles 4, 7, and 10. Pacritinib concentrations were determined using a validated liquid chromatography/tandem mass spectrometry method. […]
MEASUREMENT TYPE: AUC(0-t) (µg·h/mL)
Give bare numbers, in µg·h/mL.

Task item: I would be grateful if you could share the reported AUC(0-t) for "C1=C/COCc2cc(ccc2OCCN2CCCC2)Nc2nccc(n2)-c2cccc(c2)COC/1" .
Reply: 127
